Listed molecules paired with reported pIC50
- Test system: A549
- experimental details: Antiproliferative activity against human A549 cells after 24 hrs by MTT assay
- Format: functional, cell-based
- settings: A549, 24 h
Entry type: numeric. Quantity: pIC50, the -log10 of concentration in molar units.

# molecule, recorded measurement
records = [
    ("C=CCc1ccc(O)c(-c2ccc(O)c(CC=C)c2)c1 [HONOKIOL]", 4.47),
]

Turning now to a further record.
*Q* Which pIC50 is reported for this molecule? "C=CCc1ccc(O)c(-c2cc(C=O)c(O)c(CC=C)c2)c1"
*A* 4.47

----------
- experimental details: Antiproliferative activity against mouse C26 cells
- Type: functional, cell-based
value kind: IC50 (µM)
Your answer is read as µM, so omit the unit and give the number.

*Q* What does the record list as IC50 for C=CCc1ccc(O)c(-c2ccc(O)c(CC=C)c2)c1 [HONOKIOL] ?
*A* 65.1
